Test system: SR leukemia
experimentSummary: NCI tumour cell line growth inhibition, 48 h
Where a SMILES comes first, the peptide text is derived from it. The star is where a group is joined. Fmoc = O=C(OCC1c2ccccc2-c2ccccc21)*; Boc = CC(C)(C)OC(=O)*
Exercise: state measured TGI for each of the molecules provided.

Hi team, please reply with TGI for each item in this list.
1. CCCC(=O)OC1=C(c2ccccc2)Sc2ccccc2-n2cccc21
2. CC1(C)O[C@@H](CP(c2ccc3ccccc3c2)c2ccc3ccccc3c2)[C@H](CP(c2ccc3ccccc3c2)c2ccc3ccccc3c2)O1
3. Nc1ncnc2c1ncn2C1OC(C(=O)OCCO)C(O)C1O (stereo unspecified)
4. CC(C)(C)OC(=O)NCCCCC(NC(=O)C(Cc1c[nH]c2ccccc12)NC(=O)OCC1c2ccccc2-c2ccccc21)C(=O)O (stereo unspecified) (Fmoc-Trp-Lys(Boc)-OH; configuration not given here)

Reply:
> 10 µM
> 100 µM
> 100 µM
59.3 µM

Batch: TGI for all items listed.
1. CCCCn1c2c(n(CCCC)c1=[Se])-c1c(n(CCCC)c(=[Se])n1CCCC)S[Se][Se]S2
2. CC(=O)O[C@@H]1CN(S(=O)(=O)c2ccc(C)cc2)C[C@@H]1C1CCCCC1
3. COc1ccc2c(c1)NC(=O)CN2c1nc(C)nc2ccccc12
4. C1COCCOP2(N3CC3)=NP(N3CC3)(=NP(N3CC3)(N3CC3)=N2)OCCOCCO1 (stereo unspecified)
5. O=[N+]([O-])c1ccc2nc(=S)[nH]n2c1

Reply:
["> 100 µM", "> 100 µM", "> 100 µM", "> 100 µM", "> 100 µM"]

For the 7 molecules below, give their TGI values.
1. O=C(N1CCN(c2ccccc2)CC1)N(C(=O)C1(c2ccc(Cl)cc2)CCCC1)S(=O)(=O)c1ccccc1
2. COc1ccc(-c2cc3c(N)ncnc3o2)cc1
3. NC(=O)N/N=C/c1ccccc1O
4. CCO/N=C(/CC)c1ccc(Br)s1
5. ClCCCN1CCCCC1CCl (stereo unspecified)
6. CC(=O)N1c2ccc(-c3ccc(C(=O)O)cc3)cc2[C@H](Nc2ccc(Cl)cc2)C[C@@H]1C
7. COc1cc2c3c4c1OCc1c5c(cc(c1-4)CC3[N+](C)(C)CC2)OCO5 (stereo unspecified)

Reply:
> 100 µM
> 25 µM
> 100 µM
> 100 µM
> 100 µM
18.7 µM
> 100 µM

----------
System: IGROV1 ovarian
experimentSummary: NCI tumour cell line growth inhibition, 48 h; in the data active = GI50 below about 0.43 µM; inactive = the rest
Valid outcomes are listed here; reply with one: active, inactive

Worked set:
{"compound": "CCC(=O)Oc1ccc(/C=N/NC(N)=S)nc1", "labelClass": "inactive"}
{"compound": "O=C1C=C(OCC=C(Cl)Cl)C(=O)c2ccccc21", "labelClass": "inactive"}
{"compound": "COc1ccc2c(c1)O/C(=C\\c1ccc([N+](=O)[O-])s1)C2=O", "labelClass": "inactive"}
{"compound": "COc1ccc2c(c1)NC(=O)CN2c1nc(C)nc2ccccc12", "labelClass": "active"}
{"compound": "COc1ccc(-c2c(C#N)cnc(N)c2-c2nc3cc(C)c(C)cc3[nH]2)cc1", "labelClass": "inactive"}

Ask: Recorded test call requested for C=C1C(OCCO)OC2O[C@]3(C)CCC4[C@H](C)CCC1C24OO3 (some centres not stated)
Reply: inactive

Ask: Kindly provide the recorded test outcome for the following compound: `CN(C)c1ccc(/C=c2\sc3nnc(Cc4ccccc4)n3c2=O)cc1`
Reply: inactive

Ask: Dear colleague, could you share the recorded outcome for `Nc1nc(Cl)c2ncn(Cc3ccc(-c4ccc(CCl)cc4)cc3)c2n1` when you have a moment?
Reply: inactive

Ask: Dear all, I need the recorded test outcome for `COc1ccc(-c2cc3c(N)ncnc3o2)cc1` , thank you.
Reply: inactive

Ask: Please indicate how the test categorized `O=C(CN1CCN(c2ccccn2)CC1)Nc1ccc(Cl)cc1C(=O)c1ccccc1Cl` .
Reply: inactive

Ask: Could you check what this test reported for `COn1cc(C(=O)N=C(SC)SC)c2ccccc21` ?
Reply: inactive

Ask: So what was the verdict on `COc1cc(OC)c2c(c1Cl)O[C@]1(C2=O)C(OCc2ccccc2)=CC(=O)C[C@H]1C` in this test?
Reply: inactive

Ask: Give the logged outcome of this assay for the following compound: `COC(=O)[C@]1(C)CC[C@]2(C)CC[C@]3(C)C(=CC(=O)[C@@H]4[C@@]5(C)CCC(=O)NC(C)(C)[C@@H]5CC[C@]43C)[C@@H]2C1`
Reply: inactive

Ask: Assay result, entry `CCC(=O)OCN1C(=O)C=CC1=O` — outcome?
Reply: inactive

----------
System: MCF7 breast
experimentSummary: NCI tumour cell line growth inhibition, 48 h
reportedEndpoint: TGI

Below are worked cases with known answers.
{"compound": "CC1(C)N=C(N)N=C(N)N1c1ccc(CCC(=O)Nc2cccc(S(=O)(=O)F)c2)cc1", "measuredOn": "MCF7 breast", "TGI": "> 100 µM"}
{"compound": "O=C1CC2OCC=C3CN4CCC56c7ccccc7N1C5C2C3CC46 (stereo not given) (tested in a mixture with another compound)", "measuredOn": "MCF7 breast", "TGI": "> 50 µg/mL"}
{"compound": "CCO/N=C(/CC)c1ccc(Br)s1", "measuredOn": "MCF7 breast", "TGI": "> 100 µM"}

Batch request: TGI per item, same order as input.
1. CC1(C)N=C(N)N=C(N)N1CCCCc1ccccc1
2. NC(=O)N=Nc1c2ccccc2n2[nH]ccc12

Reply:
1. > 100 µM
2. 66.7 µM

----------
Test system: CAKI-1 renal
experimentSummary: NCI tumour cell line growth inhibition, 48 h; in the data active means GI50 below about 0.43 µM; inactive means the rest
Where a SMILES comes first, the peptide text is derived from it. [ ]: non-standard residue; d: D form. The star is where a group is joined. ξ: configuration not given here. dIva = CC[C@@](C)(N)C(=O)O; Aib = CC(C)(N)C(=O)O; ξP = O=C(O)C1CCCN1; βAla = NCCC(=O)O; X5 = OCN*
API: response.call in active, inactive

Worked cases, answers included:
{"compound": "COc1ccc(OC)c(/C=C/C(=O)c2ccc3cc(OC)ccc3c2)c1", "labelClass": "inactive"}
{"compound": "CSc1nc(-c2cccc(NC(=O)CCl)c2)c(C#N)c(=O)n1C", "labelClass": "inactive"}
{"compound": "CCC(=O)Oc1ccc(/C=N/NC(N)=S)nc1", "labelClass": "inactive"}
{"compound": "CC(CNc1nc(Nc2ccc(Cl)c(Cl)c2)nc(C(Cl)(Cl)Cl)n1)N(C)C (configuration not stated)", "labelClass": "inactive"}
{"compound": "CC1(C)N=C(N)N=C(N)N1c1ccc(CCC(=O)Nc2cccc(S(=O)(=O)F)c2)cc1", "labelClass": "inactive"}

Ask: What did this assay record as the result for `C[C@H](CCCOS(C)(=O)=O)[C@H]1CC[C@H]2[C@@H]3CC[C@@H]4C[C@H](OS(C)(=O)=O)CC[C@]4(C)[C@H]3CC[C@]12C` ?
Reply: inactive

Ask: For this compound, state the assay outcome: CC[C@@](C)(NC(=O)[C@H](C)NC(=O)CCNC(=O)C(C)(C)NC(=O)[C@H](C)NC(=O)[C@@H]1CCCN1C(=O)[C@@](C)(CC)NC(=O)[C@H](Cc1ccccc1)NC(=O)C1CCCN1C(=O)C(C)(C)NC(=O)C1CCCN1C(=O)C(C)(C)NC(C)=O)C(=O)NCCC(=O)N[C@@H](CC(C)C)C(=O)NC(C)(C)C(=O)NCCC(=O)N[C@@H](CC(C)C)C(=O)NC(C)(C)C(=O)NC(C)(C)C(=O)N[C@@H](CC(C)C)C(=O)NCCC(=O)NCO (some centres not stated) (Ac-[Aib][ξP][Aib][ξP]F[dIva]PA[Aib][βAla]A[dIva][βAla]L[Aib][βAla]L[Aib][Aib]L[βAla]-X5)
Reply: active

Ask: Write down the call the test reported for this compound. Item: `Nc1cc(N)c2nc(-c3ccccc3)c(Oc3ccc(Cl)c(Cl)c3)nc2c1`
Reply: inactive

Ask: // return assay outcome for `C[C@H](c1ccc(Cl)cc1[N+](=O)[O-])N1C(=O)c2cc(I)ccc2NC(=O)[C@H]1c1ccc(Cl)cc1`
Reply: inactive

Ask: Would you mind telling me which call this test gave `COc1ccc(-c2cc3c(N)ncnc3o2)cc1` ?
Reply: inactive

Ask: Per the records of this test, what outcome belongs to CC1SC(c2cccc(Cl)c2)N(NC(=O)C(O)c2ccccc2)C1=O (configuration not stated) ?
Reply: inactive

Ask: Per the records of this test, what outcome belongs to `CN1CCN(Cc2ccc(NC(=O)c3[nH]ncc3Nc3cc(OC4CCCC4)ncn3)cc2)CC1` ?
Reply: active

----------
Test system: LOX IMVI melanoma
experimentSummary: NCI tumour cell line growth inhibition, 48 h
Assignment: determine reported TGI for the given compounds.
Answers are plain numbers, in µM.

Examples from the recorded data:
{"compound": "N#CC1C(=O)NC(=O)C(C#N)C1c1ccc(Cl)c(Cl)c1 (stereo unspecified)", "valueUnit": "µM", "reportedResult": 34.4}
{"compound": "CCCNC(=O)c1cc(NC(=O)c2cc(NC(=O)CCS(=O)(=O)OC)cn2C)cn1C", "valueUnit": "µM", "reportedResult": 43.6}
{"compound": "O=S1(=O)C=C(c2ccccc2)C(c2ccccc2)=C1", "valueUnit": "µM", "reportedResult": 3.05}

# input for lookup
Ask: Indicate the recorded TGI value for this compound: `O=C1Cc2c([nH]c3cc(Br)ccc23)-c2ccccc2N1`
Reply: 37

Reference for the values: PubChem BioAssay (NCI)
